experiment: Solubility of SAM compounds in water, visual observation after standing at 25° C. for one day; format: physicochemical; settings: water, 25 °C, water, thermodynamic from solid, SAM concentration 0.1 mM, water, 25° C., one day, visual observation; read-out: Solubility (solvent (H2O) allowed to stand at 25° C. for one day)
measured-attribute: solubility at 1 day

# count of solved cases: 5
OCCCCCCCCCCCCCCCCS [16-Hydroxy-1-hexadecanethiol] = < 100 µM
Cl.NCCCCCCCCS [8-Amino-1-octanethiol, hydrochloride] = > 100 µM
OCCCCCCS [6-Hydroxy-1-hexanethiol] = > 100 µM
Cl.NCCCCCCS [6-Amino-1-hexanethiol, hydrochloride] = > 100 µM
OCCCCCCCCS [8-Hydroxy-1-octanethiol] = > 100 µM

We next turn to a different compound, shown below.
Please give the measured solubility at 1 day for this compound: OCCCCCCCCCCCS [11-Hydroxy-1-undecanethiol]
< 100 µM
